System: Escherichia coli TOP10
Assay: shrunken log2 fold change of peptide-encoding DNA abundance (4.5 h post-induction vs induction); higher = less antimicrobial activity (less host growth inhibition)
Settings: time post-induction: 4.5 h; library: site-saturation at positions 5, 18, 19, 20
Endpoint Name: shrunken log2 fold change

The following sequences have reported results that may help.
**Query** Looking for the measured shrunken log2 fold change of "RRIRARPPRLPRPRPRPWKDPRP" , can you help?
**Result** -0.0732

**Query** Looking for the measured shrunken log2 fold change of "RRIRIRPPRLPRPRPRPMRQPRP" , can you help?
**Result** 0.3

**Query** Looking for the measured shrunken log2 fold change of "RRIRERPPRLPRPRPRPKCMPRP" , can you help?
**Result** -0.0455

**Query** Looking for the measured shrunken log2 fold change of "RRIRQRPPRLPRPRPRPMVMPRP" , can you help?
**Result** 0.0852

**Query** Looking for the measured shrunken log2 fold change of "RRIRRRPPRLPRPRPRPSCQPRP" , can you help?
**Result** -0.0699

New cases:
**Query** Looking for the measured shrunken log2 fold change of "RRIRRRPPRLPRPRPRPMDWPRP" , can you help?
**Result** 0.516

**Query** Looking for the measured shrunken log2 fold change of "RRIRARPPRLPRPRPRPCYPPRP" , can you help?
**Result** -0.209

**Query** Looking for the measured shrunken log2 fold change of "RRIRCRPPRLPRPRPRPEFLPRP" , can you help?
**Result** -0.091

**Query** Looking for the measured shrunken log2 fold change of "RRIRKRPPRLPRPRPRPRSFPRP" , can you help?
**Result** -0.0333

---

System: Escherichia coli TOP10
Assay: shrunken log2 fold change of peptide-encoding DNA abundance (4.5 h post-induction vs induction); higher = less antimicrobial activity (less host growth inhibition)
Settings: time post-induction: 4.5 h; library: site-saturation at positions 5, 18, 19, 20
Assign t whenever shrunken log2 fold change does not fall below 0.009; assign f whenever it does.

**Query** Entry "RRIRPRPPRLPRPRPRPVKAPRP" : is its shrunken log2 fold change no less than 0.009?
**Result** t

**Query** Entry "RRIRKRPPRLPRPRPRPIAWPRP" : is its shrunken log2 fold change no less than 0.009?
**Result** t

**Query** Entry "RRIRARPPRLPRPRPRPGECPRP" : is its shrunken log2 fold change no less than 0.009?
**Result** t

New cases:
**Query** Entry "RRIRYRPPRLPRPRPRPPLSPRP" : is its shrunken log2 fold change no less than 0.009?
**Result** f

**Query** Entry "RRIRYRPPRLPRPRPRPENGPRP" : is its shrunken log2 fold change no less than 0.009?
**Result** t

**Query** Entry "RRIRRRPPRLPRPRPRPTVIPRP" : is its shrunken log2 fold change no less than 0.009?
**Result** f

**Query** Entry "RRIRMRPPRLPRPRPRPMGEPRP" : is its shrunken log2 fold change no less than 0.009?
**Result** t

**Query** Entry "RRIRFRPPRLPRPRPRPQFDPRP" : is its shrunken log2 fold change no less than 0.009?
**Result** f

**Query** Entry "RRIRNRPPRLPRPRPRPQVAPRP" : is its shrunken log2 fold change no less than 0.009?
**Result** t

**Query** Entry "RRIRFRPPRLPRPRPRPRLLPRP" : is its shrunken log2 fold change no less than 0.009?
**Result** t

---

The entries below come with measured shrunken log2 fold change values attached.
Tested on: Escherichia coli TOP10
Test: shrunken log2 fold change of peptide-encoding DNA abundance (4.5 h post-induction vs induction); higher = less antimicrobial activity (less host growth inhibition)
Conditions: time post-induction: 4.5 h; library: site-saturation at positions 5, 18, 19, 20
Give your answer as a number; write no unit.

The following sequences have reported results that may help.
**Query** Looking for the measured shrunken log2 fold change of "RRIRDRPPRLPRPRPRPKMKPRP" , can you help?
**Result** -0.42

**Query** Looking for the measured shrunken log2 fold change of "RRIRIRPPRLPRPRPRPYDCPRP" , can you help?
**Result** 0.0019

**Query** Looking for the measured shrunken log2 fold change of "RRIRDRPPRLPRPRPRPAASPRP" , can you help?
**Result** 0.049

**Query** Looking for the measured shrunken log2 fold change of "RRIRFRPPRLPRPRPRPAMKPRP" , can you help?
**Result** -0.345

**Query** Looking for the measured shrunken log2 fold change of "RRIRQRPPRLPRPRPRPAEYPRP" , can you help?
**Result** 0.0734

Turning now to a further sequence:
**Query** Looking for the measured shrunken log2 fold change of "RRIRERPPRLPRPRPRPYTYPRP" , can you help?
**Result** -0.0595

---

System: Escherichia coli TOP10
Test: shrunken log2 fold change of peptide-encoding DNA abundance (4.5 h post-induction vs induction); higher = less antimicrobial activity (less host growth inhibition)
Conditions: time post-induction: 4.5 h; library: site-saturation at positions 5, 18, 19, 20
Endpoint Name: shrunken log2 fold change
Give your answer as a number; write no unit.

**Query** Looking for the measured shrunken log2 fold change of "RRIRYRPPRLPRPRPRPLNFPRP" , can you help?
**Result** -1.01

**Query** Looking for the measured shrunken log2 fold change of "RRIRPRPPRLPRPRPRPLVRPRP" , can you help?
**Result** 0.138

---

Test system: Escherichia coli TOP10
Assay: shrunken log2 fold change of peptide-encoding DNA abundance (4.5 h post-induction vs induction); higher = less antimicrobial activity (less host growth inhibition)
Conditions: time post-induction: 4.5 h; library: site-saturation at positions 5, 18, 19, 20
The entries below come with measured shrunken log2 fold change values attached.
Give your answer as a number; write no unit.

**Query** Looking for the measured shrunken log2 fold change of "RRIRDRPPRLPRPRPRPQDLPRP" , can you help?
**Result** 0.0112

New cases:
**Query** Looking for the measured shrunken log2 fold change of "RRIRNRPPRLPRPRPRPRYHPRP" , can you help?
**Result** -0.438

**Query** Looking for the measured shrunken log2 fold change of "RRIRGRPPRLPRPRPRPPYHPRP" , can you help?
**Result** 0.0679

**Query** Looking for the measured shrunken log2 fold change of "RRIRRRPPRLPRPRPRPLRFPRP" , can you help?
**Result** 0.836

**Query** Looking for the measured shrunken log2 fold change of "RRIRPRPPRLPRPRPRPRMIPRP" , can you help?
**Result** 0.0799

**Query** Looking for the measured shrunken log2 fold change of "RRIRQRPPRLPRPRPRPTLLPRP" , can you help?
**Result** -0.0944

**Query** Looking for the measured shrunken log2 fold change of "RRIRQRPPRLPRPRPRPERAPRP" , can you help?
**Result** 0.53

**Query** Looking for the measured shrunken log2 fold change of "RRIRGRPPRLPRPRPRPSKIPRP" , can you help?
**Result** 0.149

**Query** Looking for the measured shrunken log2 fold change of "RRIRYRPPRLPRPRPRPKPYPRP" , can you help?
**Result** -0.698

**Query** Looking for the measured shrunken log2 fold change of "RRIRWRPPRLPRPRPRPLGTPRP" , can you help?
**Result** 0.0928

**Query** Looking for the measured shrunken log2 fold change of "RRIRGRPPRLPRPRPRPMTQPRP" , can you help?
**Result** 0.28

---

Tested on: Escherichia coli TOP10
Experiment: shrunken log2 fold change of peptide-encoding DNA abundance (4.5 h post-induction vs induction); higher = less antimicrobial activity (less host growth inhibition)
Settings: time post-induction: 4.5 h; library: site-saturation at positions 5, 18, 19, 20
The entries below come with measured shrunken log2 fold change values attached.
Give your answer as a number; write no unit.

**Query** Looking for the measured shrunken log2 fold change of "RRIRFRPPRLPRPRPRPEASPRP" , can you help?
**Result** 0.0218

New cases:
**Query** Looking for the measured shrunken log2 fold change of "RRIRQRPPRLPRPRPRPAYDPRP" , can you help?
**Result** -0.0146

**Query** Looking for the measured shrunken log2 fold change of "RRIRIRPPRLPRPRPRPYHAPRP" , can you help?
**Result** -0.0781

**Query** Looking for the measured shrunken log2 fold change of "RRIRTRPPRLPRPRPRPHLKPRP" , can you help?
**Result** -0.207

---

Test system: Escherichia coli TOP10;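 further: peptides expressed intracellularly from a pBAD plasmid library in pooled LB shake-flask culture, induced with 0.3% L-arabinose, DNA abundance read by NGS, three biological replicates, DESeq2 with apeglm shrinkage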
Test: shrunken log2 fold change of peptide-encoding DNA abundance (4.5 h post-induction vs induction); higher = less antimicrobial activity (less host growth inhibition)
Details: time post-induction: 4.5 h; library: site-saturation at positions 5, 18, 19, 20
Endpoint Name: shrunken log2 fold change
Give your answer as a number; write no unit.

The following sequences have reported results that may help.
**Query** Looking for the measured shrunken log2 fold change of "RRIRQRPPRLPRPRPRPMEIPRP" , can you help?
**Result** -0.0109

**Query** Looking for the measured shrunken log2 fold change of "RRIRGRPPRLPRPRPRPAGFPRP" , can you help?
**Result** 0.775

**Query** Looking for the measured shrunken log2 fold change of "RRIRNRPPRLPRPRPRPSYGPRP" , can you help?
**Result** -0.156

**Query** Looking for the measured shrunken log2 fold change of "RRIRGRPPRLPRPRPRPQINPRP" , can you help?
**Result** 0.324

**Query** Looking for the measured shrunken log2 fold change of "RRIRGRPPRLPRPRPRPHCRPRP" , can you help?
**Result** 0.376

New cases:
**Query** Looking for the measured shrunken log2 fold change of "RRIRPRPPRLPRPRPRPPARPRP" , can you help?
**Result** 0.748

**Query** Looking for the measured shrunken log2 fold change of "RRIRQRPPRLPRPRPRPEQMPRP" , can you help?
**Result** -0.00448

**Query** Looking for the measured shrunken log2 fold change of "RRIRNRPPRLPRPRPRPECCPRP" , can you help?
**Result** 0.517

**Query** Looking for the measured shrunken log2 fold change of "RRIRCRPPRLPRPRPRPPPPPRP" , can you help?
**Result** 1.55

**Query** Looking for the measured shrunken log2 fold change of "RRIRERPPRLPRPRPRPCIQPRP" , can you help?
**Result** -1.15

**Query** Looking for the measured shrunken log2 fold change of "RRIRPRPPRLPRPRPRPLAVPRP" , can you help?
**Result** 0.161

**Query** Looking for the measured shrunken log2 fold change of "RRIRFRPPRLPRPRPRPCEVPRP" , can you help?
**Result** -0.0179
